Entry source: paper PMC7909954

result type: LogRA Tango hMOR
Please give only the number in your answer, with no unit.

Provide MOR (Homo sapiens, UniProt P35372) LogRA Tango hMOR reading for O=C(NC1CCC2(O)C3Cc4ccc(O)c5c4C2(CCN3CC2CC2)C1O5)c1cccc(I)c1 (centres unmarked) [IBNtxA] . 7.572

Provide MOR (Homo sapiens, UniProt P35372) LogRA Tango hMOR reading for CO[C@@]12CC[C@@H](NC(=O)c3cccc(I)c3)C3Oc4c(O)ccc5c4[C@@]31CCN(CC1CC1)C2C5 (some centres unmarked) [MP1305] . 6.89

Provide MOR (Homo sapiens, UniProt P35372) LogRA Tango hMOR reading for O=C(N[C@@H]1CCC2C3Cc4ccc(O)c5c4[C@@]2(CCN3CC2CC2)C1O5)c1cccc(I)c1 (some centres unmarked) [MP1202] . 7.24

Provide MOR (Homo sapiens, UniProt P35372) LogRA Tango hMOR reading for O=C(N[C@@H]1CC[C@@]2(O)C3Cc4ccc(O)cc4[C@@]2(CCN3CC2CC2)C1)c1cccc(I)c1 [MP1601] . 7.65

Provide MOR (Homo sapiens, UniProt P35372) LogRA Tango hMOR reading for O=C(NC1C=CC2C3Cc4ccc(O)c5c4C2(CCN3CC2CC2)C1O5)c1cccc(I)c1 (centres unmarked) [MP1104] . 9.18
